Target: T1, P6-AA-1HAA-K
T1 chain: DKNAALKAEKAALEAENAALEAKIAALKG
Assay: two-hybrid library CCmax;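 further: natural log of median RNA to DNA barcode read ratio; higher means stronger binding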
Conditions: mean of both orientations
Our labelling divides records by interaction score into ranges: group 1: < -0.7; group 2: ≥ -0.7 and < 1; group 3: ≥ 1

Ask: Which interaction score band matches DENAALEAKEAALKAKNAALKAEIAALEG [P5-AA-1HAA-E] ?
Reply: group 1

Ask: Could you place DENAALEAKHAALKAKNAALKAEIAALEG [P5-AA-1HAA-H] in its proper category? Many thanks.
Reply: group 2

Ask: # classify by interaction score band: DENAALEAKNAALKAKNAALKAEIAALEG [P5-AA-1HAA-N]
Reply: group 2

Ask: In plain terms, what class is DENAALEAKDAALKAKNAALKAEIAALEG [P5-AA-1HAA-D] ?
Reply: group 1

Ask: Category of DENAALEAKYAALKAKNAALKAEIAALEG [P5-AA-1HAA-Y] :
Reply: group 2

The reported measurements were obtained from paper PMC10397247.
